- MEASURED_ON: OsWRKY34 (Oryza sativa, UniProt Q0JBA9 1-250)
- Sequence (Q0JBA9 entry or part of it): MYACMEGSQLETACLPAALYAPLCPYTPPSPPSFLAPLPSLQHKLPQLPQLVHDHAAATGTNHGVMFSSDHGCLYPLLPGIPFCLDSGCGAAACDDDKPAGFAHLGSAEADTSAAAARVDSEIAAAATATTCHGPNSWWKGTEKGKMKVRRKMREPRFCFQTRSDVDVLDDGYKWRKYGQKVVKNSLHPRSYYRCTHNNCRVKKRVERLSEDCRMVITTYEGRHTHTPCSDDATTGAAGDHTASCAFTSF
- METHOD: protein-binding microarray (RPBM); PBS, 2% BSA, 51.3 ng/ul salmon testes DNA, 50 uM zinc acetate, 200 nM TF, 25 C, 1 h; high values mean tight binding
- TEST_CONDITIONS: protein: recombinant; tags: N-terminal polyhistidine and DsRed monomer fusion (pET32a); label: CyDye5-dUTP incorporated in the synthesized complementary strand; 3' TTTTT single-stranded linker to array surface; dsDNA, one strand shown
The full ranking holds about 68,000 sequences; the median of “fluorescence intensity (a.u.)” is about 9,100, and the highest 2% start at about 16,000. For the sample, the highest values were picked, then their nearest neighbours and some sequences at random.
binding signal values, listed per item
TEST_READOUT: binding signal

RECORD_SEQUENCE | ENDPOINT_RESULT
ACTGGCTTTGCTATGATCTTTTGCTATCGCCCAACCGTTACGGAGTCACCTAGTGCAG | 8690 fluorescence intensity (a.u.)
TCCGCCCTCTGACCGCGGCGCCAAAGCTCCTCCGCGCGCGCGGAGTCACCTAGTGCAG | 8030 fluorescence intensity (a.u.)
AATTTATGGAGATCATTTTTTTTCTGTTTCAAAGGAAAAACGGAGTCACCTAGTGCAG | 19200 fluorescence intensity (a.u.)
CATTGATTTTTTTTCTGTTTTCATGATCAATTTTTTTTCTCGGAGTCACCTAGTGCAG | 11100 fluorescence intensity (a.u.)
CTCTCGACCACTTCCATTCCTTCCCGGGCTCGCCGCGCCGCGGAGTCACCTAGTGCAG | 9780 fluorescence intensity (a.u.)
TAATGGAAAAAATTGTTTAAAAAAGGTCAAATAGTAAAAACGGAGTCACCTAGTGCAG | 58800 fluorescence intensity (a.u.)
CACACACACCCTGTCGAGCGAATATGCATGTCTTCTCAAGCGGAGTCACCTAGTGCAG | 8960 fluorescence intensity (a.u.)
GTCAAGAATGTGCTAAAAAGTCAACGGTGTCAAACAGTTTCGGAGTCACCTAGTGCAG | 10600 fluorescence intensity (a.u.)
AGCTTCTTTTTCTGTGATAGCAATACTGCCTCGAGGAGGACGGAGTCACCTAGTGCAG | 8950 fluorescence intensity (a.u.)

###

- MEASURED_ON: OsWRKY34 (Oryza sativa, UniProt Q0JBA9 1-250)
- METHOD: protein-binding microarray (RPBM); PBS, 2% BSA, 51.3 ng/ul salmon testes DNA, 50 uM zinc acetate, 200 nM TF, 25 C, 1 h; high values mean tight binding
- TEST_CONDITIONS: protein: recombinant; tags: N-terminal polyhistidine and DsRed monomer fusion (pET32a); label: CyDye5-dUTP incorporated in the synthesized complementary strand; 3' TTTTT single-stranded linker to array surface; dsDNA, one strand shown
In all, about 68,000 sequences were measured (“fluorescence intensity (a.u.)”: median about 9,100, highest 2% from about 16,000 on). Only a selection was taken, and the highest values are over-represented in it overall.
# key: entry, value: binding signal
TEST_READOUT: binding signal

RECORD_SEQUENCE | TEST_READOUT | ENDPOINT_RESULT
GCGCTCGCCGCTGCCGCAAGCTCGCCTCCGACCCCGGCCACGGAGTCACCTAGTGCAG | binding signal | 9530 fluorescence intensity (a.u.)
ATACCGTGATTGGGATTACCTGTGACCTTGCCTATTTGACCGGAGTCACCTAGTGCAG | binding signal | 9120 fluorescence intensity (a.u.)
ACTTTGCTGCCTATTGTAGATTTGTTATAACGTAGTTACTCGGAGTCACCTAGTGCAG | binding signal | 10400 fluorescence intensity (a.u.)
GGAGAGTAGCAGTGTGGTTGATGATGGTGTTCTTGCTACTCGGAGTCACCTAGTGCAG | binding signal | 9890 fluorescence intensity (a.u.)
GCGCCCTCCGACTCCGACGGCTTCTTGTTCTCGTTGACGCCGGAGTCACCTAGTGCAG | binding signal | 8950 fluorescence intensity (a.u.)
CGCCTCGCGGCAGGCAGCCGAGCTGTCTCCAACCGTGCCGCGGAGTCACCTAGTGCAG | binding signal | 37300 fluorescence intensity (a.u.)
GAGTGTAACGGGTGGGGTGGTTTGGAAGGTGATGAGGTATCGGAGTCACCTAGTGCAG | binding signal | 11300 fluorescence intensity (a.u.)
AACAGTTGACGCAGGTGGCAGAGTTGCTAGTTCTTGCCCTCGGAGTCACCTAGTGCAG | binding signal | 61500 fluorescence intensity (a.u.)
TCTGACACCTATCTCTCCTGGATTCTCCATGCTTTCTTTCCGGAGTCACCTAGTGCAG | binding signal | 10300 fluorescence intensity (a.u.)

###

- MEASURED_ON: OsWRKY34 (Oryza sativa, UniProt Q0JBA9 1-250)
- METHOD: protein-binding microarray (RPBM); PBS, 2% BSA, 51.3 ng/ul salmon testes DNA, 50 uM zinc acetate, 200 nM TF, 25 C, 1 h; high values mean tight binding
- TEST_CONDITIONS: protein: recombinant; tags: N-terminal polyhistidine and DsRed monomer fusion (pET32a); label: CyDye5-dUTP incorporated in the synthesized complementary strand; 3' TTTTT single-stranded linker to array surface; dsDNA, one strand shown
Whole data set: some 68,000 sequences, median “fluorescence intensity (a.u.)” near 9,100, cut for the highest 2% near 16,000. For the sample, the highest values were picked, then their nearest neighbours and some sequences at random.
TEST_READOUT: binding signal

RECORD_SEQUENCE | TEST_READOUT | ENDPOINT_RESULT
CACCCACCAAGTACTCTTTTTACTTTTACCACAGCGCATACGGAGTCACCTAGTGCAG | binding signal | 9050 fluorescence intensity (a.u.)
TCGCCGGCGGAGGAGTTGGTGTGGAGAGGGCGGGGAGATGCGGAGTCACCTAGTGCAG | binding signal | 9560 fluorescence intensity (a.u.)
ATACTTAATTAATCATTCGCTAATGGACCACTCTGTTTTCCGGAGTCACCTAGTGCAG | binding signal | 8430 fluorescence intensity (a.u.)
GACTTTTTTAAACATATTTGACCGTTCGTTTTATTCAAAACGGAGTCACCTAGTGCAG | binding signal | 8190 fluorescence intensity (a.u.)
ACAACGCATTTCCATTTCTACTCTGCCCCTGGTAAATTACCGGAGTCACCTAGTGCAG | binding signal | 12400 fluorescence intensity (a.u.)
ATGTCACCAAGCGGTATAGGTCTGAATGTATTGATGTGCCCGGAGTCACCTAGTGCAG | binding signal | 9370 fluorescence intensity (a.u.)
TGCGTTTCCCGTCAGCCCTGTCACGCCGCCGCCGGTCGCCCGGAGTCACCTAGTGCAG | binding signal | 12000 fluorescence intensity (a.u.)
GCCCTTCCTCTCCTCACTCACACTGCCCTGTTCATCTCTTCGGAGTCACCTAGTGCAG | binding signal | 8540 fluorescence intensity (a.u.)
GGCTGCCCGCTCCTACATCCACATGCATGCTTCACACTGCCGGAGTCACCTAGTGCAG | binding signal | 8330 fluorescence intensity (a.u.)
AGGTGGTGTAGCGCGCGCGGGTGGGGTTGGGTTACGTGGTCGGAGTCACCTAGTGCAG | binding signal | 15600 fluorescence intensity (a.u.)
ATGTGGGTGTGGCATTGTTGGTGTCGGCTGCGCCGCAGCCCGGAGTCACCTAGTGCAG | binding signal | 9630 fluorescence intensity (a.u.)
GGAGGGAGTAGTATATTGGGGATTTTCAGTTGGGTCTGGGCGGAGTCACCTAGTGCAG | binding signal | 14200 fluorescence intensity (a.u.)
ATACCCGATCTCATTATTATGAACCAGTTATGTAATAACACGGAGTCACCTAGTGCAG | binding signal | 8020 fluorescence intensity (a.u.)
TTTTGCGCGGATGGCCCTTTACTTTTCCCCTCTTGTCCTCCGGAGTCACCTAGTGCAG | binding signal | 10400 fluorescence intensity (a.u.)
GTATGGTTGGTTGGTTGGTTTGTTGGGTTTCTCCCCGGCCCGGAGTCACCTAGTGCAG | binding signal | 33300 fluorescence intensity (a.u.)
TGTACAGTTGGTTCTTTTCTTTTTTTTTTTCAGTTGAGTCCGGAGTCACCTAGTGCAG | binding signal | 9330 fluorescence intensity (a.u.)
TCAGGCTCTCACTCGCGCTGCATGCCACACTGCTTCTTCTCGGAGTCACCTAGTGCAG | binding signal | 16400 fluorescence intensity (a.u.)
CCGGTCGTTTCCCGTATTGTTGGCATATATGTACACGGAGCGGAGTCACCTAGTGCAG | binding signal | 8030 fluorescence intensity (a.u.)
GTGAGGGTGTGGTTACAGTGGGTTGGTTTTTTTTCTCCCCCGGAGTCACCTAGTGCAG | binding signal | 11800 fluorescence intensity (a.u.)
CCGGTATTGATGTGTTCCCCAAGCCAAAAAAAAAAAGAAGCGGAGTCACCTAGTGCAG | binding signal | 64800 fluorescence intensity (a.u.)
CTAGATTTTTTGGTGACATTTTTTAGTTGGTGTGCACGTGCGGAGTCACCTAGTGCAG | binding signal | 10200 fluorescence intensity (a.u.)
TCCAGTTTTGGTCTGGGTGATGTGTCATGTTCTGATTGGCCGGAGTCACCTAGTGCAG | binding signal | 8180 fluorescence intensity (a.u.)
AAAATTCCTAAAACTACTTGCTACTATTCTCTCTCCAACTCGGAGTCACCTAGTGCAG | binding signal | 8240 fluorescence intensity (a.u.)
TCGTGTTGGTGGTGGTGGTGGTGTGCGGGCGGGCGGGCGCCGGAGTCACCTAGTGCAG | binding signal | 33300 fluorescence intensity (a.u.)
GCTTTTGAGTTGACAGCCACCGTTTTTAACCAACGCGCGACGGAGTCACCTAGTGCAG | binding signal | 8140 fluorescence intensity (a.u.)
CAATTCACGCCACCCGCTCCGCCTCTCGCCGCCTCGACCGCGGAGTCACCTAGTGCAG | binding signal | 11000 fluorescence intensity (a.u.)
CGGCTCGGCTCGGCTCGCGCGGCGGCGGCGGCGGGGCGGCCGGAGTCACCTAGTGCAG | binding signal | 8890 fluorescence intensity (a.u.)
CTAATGGTTCTGATCGCCGTGCCTAACCCTAGCCCCATATCGGAGTCACCTAGTGCAG | binding signal | 8400 fluorescence intensity (a.u.)
TATTTTAATGTATGATGCCGTTGACTTTTTAACCAACGTTCGGAGTCACCTAGTGCAG | binding signal | 27000 fluorescence intensity (a.u.)
CCTTTTTGTTGGTCTCTGTTCTTGGGTTGGGTTTTCAGTCCGGAGTCACCTAGTGCAG | binding signal | 20800 fluorescence intensity (a.u.)
GGGTTTTCCACGTTAAATCTCGTGTCTTCTGTGTTTGATCCGGAGTCACCTAGTGCAG | binding signal | 12000 fluorescence intensity (a.u.)
AAACTCTCACTCGCTCACTCACACCTCACACGCTGCTGCTCGGAGTCACCTAGTGCAG | binding signal | 8070 fluorescence intensity (a.u.)
CTGTATCCCCATTCGCTGTCAAAATTCAATTCACTGTCTTCGGAGTCACCTAGTGCAG | binding signal | 9640 fluorescence intensity (a.u.)
ACTTTTGGTGGACCTTGGTTGTTTGGTCTGTTTCTCTCAGCGGAGTCACCTAGTGCAG | binding signal | 8680 fluorescence intensity (a.u.)
TTCAATGACAATGTTGACTTTTTGACAAACGTTTAACCTTCGGAGTCACCTAGTGCAG | binding signal | 10200 fluorescence intensity (a.u.)
GATCTCCATCTCCATCTCTCTCTCTCTCTCGAGCAGAGCACGGAGTCACCTAGTGCAG | binding signal | 8360 fluorescence intensity (a.u.)
GGCTCGTCGGAGTAGGGGCGCTCGGGGTATGGGGCTCGGCCGGAGTCACCTAGTGCAG | binding signal | 20400 fluorescence intensity (a.u.)
